system: NCI-H441; experiment: relative viability (nuclei count vs DMSO), 5 days (fraction); higher = more cells survive; settings: first compound 1.265 µM
Recorded relative viability by entry
The response must contain the number and no unit.

Please review the entries below; each comes with its answer.
COc1cc(N2CCC(C(N)=O)CC2)ccc1Nc1nc(N)c(Cl)c(Nc2ccccc2S(=O)(=O)C(C)C)n1 [HG-5-88-01] + Cc1cc(Nc2cc(N3CCN(C)CC3)nc(Sc3ccc(NC(=O)C4CC4)cc3)n2)n[nH]1 [Tozasertib] (partner 0.1 µM) | 0.422
Clc1ccc(Nc2nnc(Cc3ccncc3)c3ccccc23)cc1 [Vatalanib] + C[C@]1(O)C[C@@H](c2nc(-c3ccc4ccc(-c5ccccc5)nc4c3)c3c(N)nccn32)C1 [Linsitinib] (partner 1 µM) | 0.722
COc1cc(N2CCC(C(N)=O)CC2)ccc1Nc1nc(N)c(Cl)c(Nc2ccccc2S(=O)(=O)C(C)C)n1 [HG-5-88-01] + CC(C)C[C@H](NC(=O)[C@H](Cc1ccccc1)NC(=O)c1cnccn1)B(O)O [Bortezomib] (partner 0.002 µM) | 0.558

Read the next record carefully.
Q: Consider the compound shown here: Clc1ccc(Nc2nnc(Cc3ccncc3)c3ccccc23)cc1 [Vatalanib] + CC(=O)Nc1cccc(-n2c(=O)n(C3CC3)c(=O)c3c(Nc4ccc(I)cc4F)n(C)c(=O)c(C)c32)c1 [Trametinib] (partner 0.02 µM) What is its recorded relative viability?
Result: 0.411

====

Recorded relative viability by entry
tested on: BEN; experiment: relative viability (nuclei count vs DMSO), 5 days (fraction); higher = more cells survive; details: first compound 0.4 µM
The response must contain the number and no unit.

Please review the entries below; each comes with its answer.
Clc1ccc(Nc2nnc(Cc3ccncc3)c3ccccc23)cc1 [Vatalanib] + COc1cccc2cc(-c3nc([C@H]4CC[C@H](C(=O)O)CC4)n4ncnc(N)c34)[nH]c12 [OSI-027] (partner 0.5 µM) | 0.31
Clc1ccc(Nc2nnc(Cc3ccncc3)c3ccccc23)cc1 [Vatalanib] + Cc1cc(Nc2cc(N3CCN(C)CC3)nc(Sc3ccc(NC(=O)C4CC4)cc3)n2)n[nH]1 [Tozasertib] (partner 0.1 µM) | 0.557

Q: Consider the molecule shown here: C[C@@H]1CN(CC(=O)Nc2ccc3c(c2)Cc2cccc(-c4cc(=O)cc(N5CCOCC5)o4)c2S3)C[C@H](C)O1 + Cc1nc(NC(=O)N2CCC[C@H]2C(N)=O)sc1-c1ccnc(C(C)(C)C(F)(F)F)c1 [Alpelisib] (partner 2 µM) What is its recorded relative viability?
Result: 1.03

Q: Another molecule to look at: C[C@@H]1CN(CC(=O)Nc2ccc3c(c2)Cc2cccc(-c4cc(=O)cc(N5CCOCC5)o4)c2S3)C[C@H](C)O1 + Cc1cc(Nc2cc(N3CCN(C)CC3)nc(Sc3ccc(NC(=O)C4CC4)cc3)n2)n[nH]1 [Tozasertib] (partner 0.1 µM)
Result: 0.447

====

system: NCI-H2023; test: relative viability (nuclei count vs DMSO), 5 days (fraction); higher = more cells survive; details: first compound 0.3162 µM
measuredEndpoint: relative viability
The response must contain the number and no unit.

CC(C)Oc1cc(Nc2nc(N[C@@H](C)c3ccc(F)cn3)ncc2Cl)n[nH]1 [AZ23] + CC(C)C[C@H](NC(=O)[C@H](Cc1ccccc1)NC(=O)c1cnccn1)B(O)O [Bortezomib] (partner 0.002 µM) | 1.22
CC(C)Oc1cc(Nc2nc(N[C@@H](C)c3ccc(F)cn3)ncc2Cl)n[nH]1 [AZ23] + O=C(CCCCCCC(=O)Nc1ccccc1)NO [Vorinostat] (partner 1 µM) | 0.861
CC(C)Oc1cc(Nc2nc(N[C@@H](C)c3ccc(F)cn3)ncc2Cl)n[nH]1 [AZ23] + Nc1ncn([C@H]2C[C@H](O)[C@@H](CO)O2)c(=O)n1 [Decitabine] (partner 2 µM) | 0.239
CC(C)Oc1cc(Nc2nc(N[C@@H](C)c3ccc(F)cn3)ncc2Cl)n[nH]1 [AZ23] + Cc1nc(Nc2ncc(C(=O)Nc3c(C)cccc3Cl)s2)cc(N2CCN(CCO)CC2)n1 [Dasatinib] (partner 0.075 µM) | 0.57

Q: Consider the molecule shown here: CC(C)Oc1cc(Nc2nc(N[C@@H](C)c3ccc(F)cn3)ncc2Cl)n[nH]1 [AZ23] + CS(=O)(=O)CCNCc1ccc(-c2ccc3ncnc(Nc4ccc(OCc5cccc(F)c5)c(Cl)c4)c3c2)o1 [Lapatinib] (partner 2 µM) What is its recorded relative viability?
Result: 0.929

====

tested on: NCI-H1650; experiment: relative viability (nuclei count vs DMSO), 5 days (fraction); higher = more cells survive; conditions: first compound 1.265 µM
Recorded relative viability by entry
The response must contain the number and no unit.

COc1cc(N2CCC(C(N)=O)CC2)ccc1Nc1nc(N)c(Cl)c(Nc2ccccc2S(=O)(=O)C(C)C)n1 [HG-5-88-01] + COc1cccc2cc(-c3nc([C@H]4CC[C@H](C(=O)O)CC4)n4ncnc(N)c34)[nH]c12 [OSI-027] (partner 0.5 µM) | 0.32

Q: Consider the compound shown here: COc1cc(N2CCC(C(N)=O)CC2)ccc1Nc1nc(N)c(Cl)c(Nc2ccccc2S(=O)(=O)C(C)C)n1 [HG-5-88-01] + C[C@@H](Oc1cc(-c2cnn(C3CCNCC3)c2)cnc1N)c1c(Cl)ccc(F)c1Cl [Crizotinib] (partner 1 µM) What is its recorded relative viability?
Result: 0.817

====

tested on: CAL-12T; assay: relative viability (nuclei count vs DMSO), 5 days (fraction); higher = more cells survive; conditions: first compound 0.01 µM
measuredEndpoint: relative viability
The response must contain the number and no unit.

Please review the entries below; each comes with its answer.
CC(C)Oc1cc(Nc2nc(N[C@@H](C)c3ccc(F)cn3)ncc2Cl)n[nH]1 [AZ23] + C[C@]1(O)C[C@@H](c2nc(-c3ccc4ccc(-c5ccccc5)nc4c3)c3c(N)nccn32)C1 [Linsitinib] (partner 1 µM) | 0.551
CC(C)Oc1cc(Nc2nc(N[C@@H](C)c3ccc(F)cn3)ncc2Cl)n[nH]1 [AZ23] + NC(=O)Nc1cc(-c2cccc(F)c2)sc1C(=O)N[C@H]1CCCNC1 [AZD7762] (partner 0.2 µM) | 0.614
CC(C)Oc1cc(Nc2nc(N[C@@H](C)c3ccc(F)cn3)ncc2Cl)n[nH]1 [AZ23] + C[C@@H](Oc1cc(-c2cnn(C3CCNCC3)c2)cnc1N)c1c(Cl)ccc(F)c1Cl [Crizotinib] (partner 1 µM) | 0.324

Read the next record carefully.
Q: Field: relative viability (CAL-12T). Entry: CC(C)Oc1cc(Nc2nc(N[C@@H](C)c3ccc(F)cn3)ncc2Cl)n[nH]1 [AZ23] + CC1(C)CCC(c2ccc(Cl)cc2)=C(CN2CCN(c3ccc(C(=O)NS(=O)(=O)c4ccc(N[C@H](CCN5CCOCC5)CSc5ccccc5)c(S(=O)(=O)C(F)(F)F)c4)cc3)CC2)C1 [Navitoclax] (partner 0.5 µM)
Result: 0.61

====

test system: ChaGo-K-1; test: relative viability (nuclei count vs DMSO), 5 days (fraction); higher = more cells survive; settings: first compound 0.04 µM
Recorded relative viability by entry

Please review the entries below; each comes with its answer.
COc1cc(N2CCC(C(N)=O)CC2)ccc1Nc1nc(N)c(Cl)c(Nc2ccccc2S(=O)(=O)C(C)C)n1 [HG-5-88-01] + CC1(C)CCC(c2ccc(Cl)cc2)=C(CN2CCN(c3ccc(C(=O)NS(=O)(=O)c4ccc(N[C@H](CCN5CCOCC5)CSc5ccccc5)c(S(=O)(=O)C(F)(F)F)c4)cc3)CC2)C1 [Navitoclax] (partner 0.5 µM) | 1.05
C[C@@H]1CN(CC(=O)Nc2ccc3c(c2)Cc2cccc(-c4cc(=O)cc(N5CCOCC5)o4)c2S3)C[C@H](C)O1 + COc1cccc2cc(-c3nc([C@H]4CC[C@H](C(=O)O)CC4)n4ncnc(N)c34)[nH]c12 [OSI-027] (partner 0.5 µM) | 0.525

Read the next record carefully.
Q: Field: relative viability (ChaGo-K-1). Entry: COc1cc(N2CCC(C(N)=O)CC2)ccc1Nc1nc(N)c(Cl)c(Nc2ccccc2S(=O)(=O)C(C)C)n1 [HG-5-88-01] + C[C@@H](Oc1cc(-c2cnn(C3CCNCC3)c2)cnc1N)c1c(Cl)ccc(F)c1Cl [Crizotinib] (partner 1 µM)
Result: 1.12

====

system: NCI-H1395; assay: relative viability (nuclei count vs DMSO), 5 days (fraction); higher = more cells survive; conditions: first compound 0.4 µM
measuredEndpoint: relative viability
The response must contain the number and no unit.

COc1cc(N2CCC(C(N)=O)CC2)ccc1Nc1nc(N)c(Cl)c(Nc2ccccc2S(=O)(=O)C(C)C)n1 [HG-5-88-01] + Nc1ncn([C@H]2C[C@H](O)[C@@H](CO)O2)c(=O)n1 [Decitabine] (partner 2 µM) | 0.789
COc1cc(N2CCC(C(N)=O)CC2)ccc1Nc1nc(N)c(Cl)c(Nc2ccccc2S(=O)(=O)C(C)C)n1 [HG-5-88-01] + O=C(c1cc(Cc2n[nH]c(=O)c3ccccc23)ccc1F)N1CCN(C(=O)C2CC2)CC1 [Olaparib] (partner 8 µM) | 0.48

Q: Consider the compound shown here: C[C@@H]1CN(CC(=O)Nc2ccc3c(c2)Cc2cccc(-c4cc(=O)cc(N5CCOCC5)o4)c2S3)C[C@H](C)O1 + Cc1nc(NC(=O)N2CCC[C@H]2C(N)=O)sc1-c1ccnc(C(C)(C)C(F)(F)F)c1 [Alpelisib] (partner 2 µM) What is its recorded relative viability?
Result: 1.05

Q: Another compound to look at: Clc1ccc(Nc2nnc(Cc3ccncc3)c3ccccc23)cc1 [Vatalanib] + NC(=O)Nc1cc(-c2cccc(F)c2)sc1C(=O)N[C@H]1CCCNC1 [AZD7762] (partner 0.2 µM)
Result: 0.389
